Values compiled from the supplement of paper PMC9732359.

experiment: protein stability index of a GFP-peptide fusion (yeast GPS) (PSI 1-4); higher = more stable; sorted into four equal gates, so the index is relative within each strain; settings: ubr1∆
readout: protein stability index
Just the number, please, no unit attached.

Would you please look over these solved cases?
sequence	quantitative.readout
SKTLSLIQSYSLLDKPD [FAS1]	2.14
HSGELMRQQSKELQQLQ [SMC1]	2.7
AVAASSTKTGTPSDLSE [POP1]	3.33
NLAIVELVRLLIIDEIH [BRR2]	2.36
TFRIFHNHDTGCDENDS [YDL088C/ASM4]	3.11
LEGEELAFYLRRLTAKK [RPS8A]	3.05
TKLKNAVQNESVSSPIE [QCR2]	3.05
EIEELKSSIQNLNELES [SMC3]	2.71

Q: Specify reported protein stability index for the sequence shown: KAKERLQALKANDEEAY [SNF2]
A: 1.77

Q: Specify reported protein stability index for the sequence shown: IEAIDEYNKPNSEKFVF [ISW2]
A: 3.15

Q: Specify reported protein stability index for the sequence shown: SVLLQQLLTPGSKISSN [YGL172W/NUP49]
A: 2.56

Q: Specify reported protein stability index for the sequence shown: EIIPLQDYYIIGANIYQ [MED6]
A: 3.1

Q: Specify reported protein stability index for the sequence shown: EVLCSRIIEKSVRRSGA [RRP45]
A: 2.94

Q: Specify reported protein stability index for the sequence shown: DIIQGNPLMYSGGNNTA [PCI8]
A: 3.24

Q: Specify reported protein stability index for the sequence shown: KKSGSLTFNSKNIQSKD [FAS2]
A: 3.27

Q: Specify reported protein stability index for the sequence shown: SGTTNFMRNGLLEGLNE [UBP6]
A: 3.45

Q: Specify reported protein stability index for the sequence shown: EDISKATHLPKDNVEHL [RPN9]
A: 3.26

Q: Specify reported protein stability index for the sequence shown: SPNPTLQPVIPGGAASK [SNF5]
A: 2.88

Q: Specify reported protein stability index for the sequence shown: SNQFKRSLATAVATPKA [COR1]
A: 1.3

Q: Specify reported protein stability index for the sequence shown: IDMHLIYGVEWLIEGKL [YDL116W/NUP84]
A: 2.33

Q: Specify reported protein stability index for the sequence shown: AHVNKVTEETTKQIQSV [SIR4]
A: 2.53

Q: Specify reported protein stability index for the sequence shown: SSVNEDTFLPPPPPPPS [PRP8]
A: 2.46

Q: Specify reported protein stability index for the sequence shown: ALPDAVTIIEPKEEEPI [RPS3]
A: 3.04

Q: Specify reported protein stability index for the sequence shown: KGVTEKDAVDYSKIPNI [RRP6]
A: 3.3

Q: Specify reported protein stability index for the sequence shown: DDVKNILNAKYTKETYQ [RPN6]
A: 3.12

Q: Specify reported protein stability index for the sequence shown: KSFISKLLGIGDIESLF [SRP54]
A: 2.1

Q: Specify reported protein stability index for the sequence shown: VSKPSLLHETNDSFKGL [PRP8]
A: 2.99

Q: Specify reported protein stability index for the sequence shown: LTNEISDLKGKLSSAEN [YIL149C/MLP2]
A: 3.32

Q: Specify reported protein stability index for the sequence shown: SHFSLDQFITSLKCTDP [ITC1]
A: 2.12

Q: Specify reported protein stability index for the sequence shown: RNESLKNNSSIRNVIMS [SRB8]
A: 2.09

----------
assay: protein stability index of a GFP-peptide fusion (yeast GPS) (PSI 1-4); higher = more stable; sorted into four equal gates, so the index is relative within each strain; conditions: pdr5∆
readout: protein stability index
Just the number, please, no unit attached.

sequence	protein stability index
KKASEISVSSRSDREYP [SRP14]	3.1
LKKELKLLAKELEEQES [SMC2]	3.14
YGTATADDADIEMKDVS [MED1]	3.17
IPYAAKLLFQELLSMNI [RET1]	1.46

Q: Specify reported protein stability index for the sequence shown: NLTIHFGGEKGKRIREN [FAS1]
A: 3.01

Q: Specify reported protein stability index for the sequence shown: KAFKNNSSKYYINEKES [SMC4]
A: 2.42

Q: Specify reported protein stability index for the sequence shown: IKNLTVQLSPSNPQHII [RGR1]
A: 2.74

Q: Specify reported protein stability index for the sequence shown: HDFLFNTIIRDGSKMLK [RPN14]
A: 2.55

Q: Specify reported protein stability index for the sequence shown: SLEQRTLNPDLFLYKEL [RPC82]
A: 3.13

Q: Specify reported protein stability index for the sequence shown: SVIQLCGGINDSIPYPQ [ECM29]
A: 2.59

----------
test: protein stability index of a GFP-peptide fusion (yeast GPS) (PSI 1-4); higher = more stable; sorted into four equal gates, so the index is relative within each strain; details: pdr5∆
readout: protein stability index

Would you please look over these solved cases?
sequence	result
LISSSGPIKTPVGACAT [FAS2]	1.76
ELNIIPRDLLRVIIQEL [PRP28]	1.4
ITSGGFLLKAYINVSRG [SRB5]	2.48

Q: Specify reported protein stability index for the sequence shown: EKWLLNQIPVTEHSKVT [SRB6]
A: 2.6

Q: Specify reported protein stability index for the sequence shown: AKYHAKLNKKLQHLRSR [SRP68]
A: 3.44

Q: Specify reported protein stability index for the sequence shown: EIHPITFPPEVLARISP [RRP43]
A: 2.57

Q: Specify reported protein stability index for the sequence shown: LQRPTATDEESVRLQRF [CSN12]
A: 2.98

Q: Specify reported protein stability index for the sequence shown: DLETSLSQSSSYLETLT [MED2]
A: 3.12

----------
test: protein stability index of a GFP-peptide fusion (yeast GPS) (PSI 1-4); higher = more stable; sorted into four equal gates, so the index is relative within each strain; conditions: pdr5∆
readout: protein stability index
Just the number, please, no unit attached.

sequence	readout	quantitative.readout
SNLTIYPIYELLMSCPR [GRR1]	protein stability index	1.75
AAAAVCEKWAASSWAKK [RPL14A]	protein stability index	3.08
LKIFKIFCIDLEVFHHF [SRB8]	protein stability index	2.23
SSNIVNENDSQAIITER [YIL149C/MLP2]	protein stability index	2.93
KLLDNIQEYQLCDNFNH [COR1]	protein stability index	2.31

Q: Specify reported protein stability index for the sequence shown: EIEQVCKQVHDKLTSIQ [MED7]
A: 3.23

Q: Specify reported protein stability index for the sequence shown: YDSRSGTHNMYKEIRDV [RPL20A]
A: 3.06

----------
test: protein stability index of a GFP-peptide fusion (yeast GPS) (PSI 1-4); higher = more stable; sorted into four equal gates, so the index is relative within each strain; details: pdr5∆
Lab note: anything with protein stability index at or over 3 counts as 1 (yes); the rest go in 0 (no).

sequence	group
PWFWLLPLWHLLNRIPR [POP1]	0 (no)
VKEQTEAAKKSEKKAKK [RPL34A]	1 (yes)

Q: Is the recorded value of protein stability index equal to or greater than 3 for this sequence? LKTEKIFKEINEHSTSY [FAS1]
A: 1 (yes)

Q: Is the recorded value of protein stability index equal to or greater than 3 for this sequence? MSGILHCEDKDYKTAFS [RPN6]
A: 0 (no)

Q: Is the recorded value of protein stability index equal to or greater than 3 for this sequence? ANLRVLNSYWVNQDSTY [RPL15A]
A: 0 (no)

Q: Is the recorded value of protein stability index equal to or greater than 3 for this sequence? SGQKTNRQVMHKMGVER [SIR3]
A: 1 (yes)

Q: Is the recorded value of protein stability index equal to or greater than 3 for this sequence? DWGQALRLLLLLIEFPY [YJR042W/NUP85]
A: 0 (no)

Q: Is the recorded value of protein stability index equal to or greater than 3 for this sequence? RTYSKTYSTPKRPYESS [RPS9A]
A: 0 (no)

Q: Is the recorded value of protein stability index equal to or greater than 3 for this sequence? DGHLRAPLKHGVGILYK [BRR2]
A: 0 (no)

Q: Is the recorded value of protein stability index equal to or greater than 3 for this sequence? HLRSNILKDLIYRGVLN [SMC1]
A: 0 (no)

Q: Is the recorded value of protein stability index equal to or greater than 3 for this sequence? FDNKSTSEEQEALLRSL [SNF2]
A: 1 (yes)

Q: Is the recorded value of protein stability index equal to or greater than 3 for this sequence? LICPQYGTENKDGEDII [CSL4]
A: 1 (yes)

Q: Is the recorded value of protein stability index equal to or greater than 3 for this sequence? IRNCATEAGFFAIRDDR [RPT4]
A: 1 (yes)

Q: Is the recorded value of protein stability index equal to or greater than 3 for this sequence? LQFHVATYMDNDIAGQP [RPO21]
A: 0 (no)

----------
assay: protein stability index of a GFP-peptide fusion (yeast GPS) (PSI 1-4); higher = more stable; sorted into four equal gates, so the index is relative within each strain; details: pdr5∆
Measured protein stability index accompanies every entry in the list below.
Just the number, please, no unit attached.

sequence	protein stability index
NLSQENDNEGKHISASI [YAR002W/NUP60]	3.34
AVDLEHHDYRSYYGIVC [RRP6]	2.77
EAGASAELDDCRGVSEN [RPO21]	3.54
SMENTPKVPVSAAATPS [GAL11]	2.19

Q: Specify reported protein stability index for the sequence shown: AKRDYIISRLNADFQKP [FAS1]
A: 3.07

Q: Specify reported protein stability index for the sequence shown: LNIGKNFAHSDSLSVPK [SIR4]
A: 3

Q: Specify reported protein stability index for the sequence shown: EVEEDDEDDDQPMISPD [SWI3]
A: 3.45

Q: Specify reported protein stability index for the sequence shown: DIDVTIVSKEYEKNFEA [ESC2]
A: 3.06

Q: Specify reported protein stability index for the sequence shown: YEYGAVSVLLISKDCSA [BRR2]
A: 1.97

Q: Specify reported protein stability index for the sequence shown: INMADRSLGLQQVVCIF [POP6]
A: 1.3

Q: Specify reported protein stability index for the sequence shown: ANSESGHYQAFIRDELD [UBP6]
A: 2.76

Q: Specify reported protein stability index for the sequence shown: QNCWSLINDSYINDVHL [SSN8]
A: 3.22

Q: Specify reported protein stability index for the sequence shown: DDDDEDDDEIVMPVPNV [SKP1]
A: 3.06
